tested on: T-47D breast; assay: NCI-60 one-dose screen, 48 h; conditions: 10 µM unless noted
Compounds without any hit were thinned out: in the full panel of roughly 83,000, 20% have a hit. The source made the active and inactive calls. Rule for the calls: active = growth percent below 10; inactive = the rest.
Return exactly one item of active, inactive

Query :: In this assay, the call recorded for `COc1cc2nc3sc(C(=O)Nc4ccc(C(=O)OC(C)C)cc4)c(C(=O)Nc4ccc(Cl)cc4C)n3c(=O)c2cc1OC` was what?
Result :: inactive

Query :: In this assay, the call recorded for `O=C(CCCCCCN1CC(=O)N2[C@H](c3ccc(Br)cc3)c3[nH]c4ccccc4c3C[C@@H]2C1=O)NO` was what?
Result :: active

Query :: In this assay, the call recorded for `COc1cc(C2C(C(=O)OCc3ccccc3)=C(C)NC(C)=C2C(=O)OCc2ccccc2)cc(OC)c1OC` was what?
Result :: inactive

Query :: In this assay, the call recorded for `C=Cc1cnc(Nc2ccc(OC)cc2)nc1NCCCNC(=O)C1CCC1` was what?
Result :: inactive

Query :: In this assay, the call recorded for `Cc1ccc2nc(NC(=O)CSc3nc(-c4ccccc4)c(C#N)c4nnnn34)sc2c1` was what?
Result :: inactive

Query :: In this assay, the call recorded for N#Cc1cccc(C2C3=C(COC3=O)N(CCO)c3cc4c(cc32)OCO4)c1 (stereo not drawn) was what?
Result :: inactive

Query :: In this assay, the call recorded for `CN(C)c1ccc(/C=C(\C#N)c2cc3ccccc3[nH]2)cc1` was what?
Result :: inactive

Query :: In this assay, the call recorded for `COc1ccc2c(c1)c(-c1nc(-c3c[nH]c4ncccc34)cs1)cn2CCO` was what?
Result :: inactive

Query :: In this assay, the call recorded for `CC1=C(C(=O)Nc2nc(-c3ccc(Cl)cc3)cs2)[C@H](c2ccc(O)cc2)NC(=O)N1` was what?
Result :: inactive

Query :: In this assay, the call recorded for `Nc1c(C(=O)Nc2cccc(Cl)c2)sc2nc3c(cc12)CCCC3` was what?
Result :: inactive

Query :: In this assay, the call recorded for `O=c1c2c3c(sc2n2c(-c4cc(-c5ccccc5)no4)nnc2n1Cc1ccccc1)CCCC3` was what?
Result :: inactive

Query :: In this assay, the call recorded for O=P(O)(O)OCC1OC(n2cnc3c(NCc4ccco4)ncnc32)C(O)C1O (stereo not drawn) was what?
Result :: inactive

Query :: In this assay, the call recorded for `C/C=C(/C)n1cnc2c(Nc3ccccn3)nc(Cl)nc21` was what?
Result :: inactive

Query :: In this assay, the call recorded for `COc1ccc(/C=C(/c2ccccc2)[N+](=O)[O-])c(OC)c1` was what?
Result :: active

Query :: In this assay, the call recorded for `O=C(NNc1cnccn1)c1nc2cc(F)ccc2n2cccc12` was what?
Result :: inactive

Query :: In this assay, the call recorded for `CCc1ccc(CCC(=O)Nc2ncc(Cc3ccccc3)s2)o1` was what?
Result :: inactive

Query :: In this assay, the call recorded for `COc1cc(OC)c2sc(-c3ccc(-n4cncc4-c4cc(OC)c(OC)c(OC)c4)cc3)nc2c1` was what?
Result :: inactive

Query :: In this assay, the call recorded for `N=C(N)c1ccc(-c2ccc(-c3cc(Cl)cc(Cl)c3)s2)nc1` was what?
Result :: inactive

Query :: In this assay, the call recorded for `COC(=O)CC[C@@H]1O[C@@H](c2ccc(F)cc2)[C@@H](O)[C@H]1O` was what?
Result :: inactive

Query :: In this assay, the call recorded for `C#CCn1cnc2cnc(Nc3cccc(NC(=O)C=C)c3)nc21` was what?
Result :: inactive

Query :: In this assay, the call recorded for `COc1ccc(/C(C)=C(\c2ccc(Cl)cc2)c2ccc(OCCN3CCCCC3)cc2)cc1` was what?
Result :: inactive

Query :: In this assay, the call recorded for C=CCOC(=O)C1=C(C)N(CC)C(=O)NC1c1c(Cl)n(C)c2ccccc12 (stereo not drawn) was what?
Result :: inactive

Query :: In this assay, the call recorded for `CCNC(=O)Oc1ccc(/C(=C(/C)Cc2ccc(OC)cc2)c2ccc(OCCN3CCCCC3)cc2)cc1` was what?
Result :: inactive

Query :: In this assay, the call recorded for `N#C/C(=C\c1cn(Cc2ccccc2)c2ccccc12)C(=O)Nc1ncc(Cc2ccccc2Cl)s1` was what?
Result :: active

Query :: In this assay, the call recorded for `COc1ccc(C[n+]2c3ccccc3n3c4ccc(N)cc4ccc32)c(OC)c1OC` was what?
Result :: active

Query :: In this assay, the call recorded for Cc1cccc2c1C[C@@]1(C2=O)C(c2ccc(C(C)(C)C)cc2)=NOS1=O (stereo partly drawn) was what?
Result :: inactive

Query :: In this assay, the call recorded for `Oc1ccc(/C=C/c2ccc(O)cc2)cc1` was what?
Result :: inactive

Query :: In this assay, the call recorded for COc1ccc(/C=C/C(c2cc(OC)c(OC)c(OC)c2)n2ccnc2)cc1O (stereo not drawn) was what?
Result :: inactive

Query :: In this assay, the call recorded for `C=C(C)[C@@H]1CC[C@]2(C)[C@H](CC=C3[C@@H]4CC(C)(C)CC[C@]4(CO)CC[C@]32C)[C@@]1(C)CCCN` was what?
Result :: active

Query :: In this assay, the call recorded for `COc1ccc(/C=C/C(=O)c2cc(OC)c(OC)c(OC)c2)cc1OCC(=O)Nc1nc2ccc(OC(F)(F)F)cc2s1` was what?
Result :: inactive

Query :: In this assay, the call recorded for C#CC#CC#CC#CC#CC#CC#CC#CCC1OC[C@H](COC(=O)O[C@@H](C(=O)O[C@H]2C[C@@]3(O)[C@@H](OC(=O)c4ccccc4)[C@@H]4[C@]5(OC(C)=O)CO[C@@H]5C[C@H](O)[C@@]4(C)C(=O)[C@H](OC(C)=O)C(=C2C)C3(C)C)[C@@H](NC(=O)c2ccccc2)c2ccccc2)O1 (stereo partly drawn) was what?
Result :: inactive

Query :: In this assay, the call recorded for `O=C(CC(=O)Nc1cccc(C(=O)O)c1)Nc1cccc(C(=O)O)c1` was what?
Result :: inactive

Query :: In this assay, the call recorded for COc1ccc(CCN(CC(=O)N(CC(N)=O)C2CCC[C@@H]2OCc2ccccc2)C(=O)CN(C(=O)CN(CCc2ccc(Cl)cc2)C(=O)CN(C(=O)CN(C)Cc2ccccc2F)[C@H](C)C2CCCCC2)[C@H](C)C2CCCCC2)cc1OC (stereo partly drawn) was what?
Result :: inactive
